molecular target: human GPR119 (Homo sapiens); construct: expression vector for human GPR119 cDNA (Acc. No. NP_848566); Min-6/hGPR119; assay: AlphaScreen cAMP assay in MIN6 cells stably transfected with human GPR119; conditions: Min-6/hGPR119 cells, 45 min at room temperature
Sequence (Q8TDV5 whole entry): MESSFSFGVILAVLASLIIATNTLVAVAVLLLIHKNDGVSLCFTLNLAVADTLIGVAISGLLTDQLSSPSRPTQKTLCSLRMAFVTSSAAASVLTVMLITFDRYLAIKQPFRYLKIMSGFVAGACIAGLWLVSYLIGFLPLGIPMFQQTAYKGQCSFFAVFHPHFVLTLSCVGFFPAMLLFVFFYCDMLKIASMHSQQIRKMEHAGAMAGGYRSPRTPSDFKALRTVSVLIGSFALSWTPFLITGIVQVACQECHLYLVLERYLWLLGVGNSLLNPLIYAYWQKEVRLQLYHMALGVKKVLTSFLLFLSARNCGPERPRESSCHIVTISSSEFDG
readout.kind: pEC50
Please express pEC50 as -log10 of the molar concentration.

Qu. Entry `CN(C)c1ccc(-c2ncc(C(=O)N(C3CC3)C3CCN(C(=O)OC(C)(C)C)CC3)cn2)cn1` : reported pEC50 = ?
Ans. 6.68

Qu. Next entry: `CC(C)(C)OC(=O)N1CCC(N(C(=O)c2cnc(-c3ccc(C#N)cc3)o2)C2CC2)CC1`
Ans. 6.87

Qu. Next up: `CN(C(=O)c1ccc(-c2ncc(C(=O)N(C3CC3)C3CCN(C(=O)OC(C)(C)C)CC3)cn2)cc1)C1CCOCC1`
Ans. 6.46

Qu. Same question, `C[C@H](OC(=O)N1CCC(N(C(=O)c2cnc(-c3cnco3)cn2)C2CC2)CC1)C(F)(F)F` this time
Ans. 7.21

Qu. How about `CN(Cc1cccnc1)C(=O)c1ccc(-c2ncc(C(=O)N(C3CC3)C3CCN(C(=O)OC(C)(C)C)CC3)cn2)c(F)c1` ?
Ans. 6.44

Qu. Record: CC(C)(C)OC(=O)N1CCC(N(C(=O)c2cnc(-c3ccc(C(=O)NCC4CCCCO4)c(F)c3)nc2)C2CC2)CC1 (stereo not shown)
Ans. 6.96

Qu. Ok, now `CC(C)(C)OC(=O)N1CCC(N(C(=O)c2cnc(-c3ccc(C(=O)NCCOC(F)(F)F)c(F)c3)nc2)C2CC2)CC1`
Ans. 6.98

Qu. Entry `CC(C)(C)OC(=O)N1CCC(N(C(=O)c2ccc(-c3cnco3)nn2)C2CC2)CC1` please
Ans. 5.89

Qu. Proceed to `CC(C)(C)OC(=O)N1CCC(N(C(=O)c2cnc(-c3ccc(C#N)cc3F)o2)C2CC2)CC1`
Ans. 7.32

Qu. Next: `CC(C)(C)OC(=O)N1CCC(N(C(=O)c2ccc(-c3cnco3)cn2)C2CC2)CC1`
Ans. 6.92

Qu. Now the same for CC(C)(C)OC(=O)N1CCC(N(C(=O)c2cnc(-c3ccc(C(=O)N4CCC(C#N)C4)cc3)nc2)C2CC2)CC1 (stereo not shown)
Ans. 6.37

Qu. `COc1ccccc1-c1ncc(C(=O)N(C2CC2)C2CCN(C(=O)OC(C)(C)C)CC2)cn1` , same question.
Ans. 5.78

Qu. And `CC(C)(C)OC(=O)N1CCC(N(C(=O)c2cnc(-c3ccc(CC(=O)NCCOC(F)(F)F)cc3)nc2)C2CC2)CC1` ?
Ans. 6.38

Qu. Lookup `CC(C)(C)OC(=O)N1CCC(N(C(=O)c2cnc(-c3ccc(C(=O)N4CCOCC4)c(F)c3)nc2)C2CC2)CC1`
Ans. 6.35

Qu. Same lookup for `CC(C)(C)OC(=O)N1CCC(N(C(=O)c2cnc(-c3ccc(NS(C)(=O)=O)cc3)nc2)C2CC2)CC1` , please.
Ans. 6.68

Qu. And `COc1ccc(NC(=O)c2ccc(-c3ncc(C(=O)N(C4CC4)C4CCN(C(=O)OC(C)(C)C)CC4)cn3)cc2)cn1` ?
Ans. 6.77

Qu. And what about the compound CC(C)(C)OC(=O)N1CCC(N(C(=O)c2cnc(-c3ccc(C(=O)NCC4CCCCO4)cc3)nc2)C2CC2)CC1 (stereo not shown) ?
Ans. 6.73

Qu. Entry `CC(C)(C)OC(=O)N1CCC(N(C(=O)c2cnc(-c3ccc(C(=O)NCC#N)c(F)c3)nc2)C2CC2)CC1` please
Ans. 7.07

Qu. Request: `CC(C)(C)OC(=O)N1CCC(N(C(=O)c2ncc(-c3ccc(C#N)c(F)c3)cn2)C2CC2)CC1`
Ans. 6.20

Qu. Again, but for `COC1CCN(C(=O)c2ccc(-c3ncc(C(=O)N(C4CC4)C4CCN(C(=O)OC(C)(C)C)CC4)cn3)c(F)c2)CC1`
Ans. 6.29

Qu. // repeat for COC(C)CN(C)C(=O)c1ccc(-c2ncc(C(=O)N(C3CC3)C3CCN(C(=O)OC(C)(C)C)CC3)cn2)c(F)c1 (stereo not shown) and report
Ans. 6.40

Qu. Also check `CC(C)(O)CNC(=O)c1ccc(-c2ncc(C(=O)N(C3CC3)C3CCN(C(=O)OC(C)(C)C)CC3)cn2)cc1F`
Ans. 6.29

Qu. Similarly, `COC[C@H]1CCCN1C(=O)c1ccc(-c2ncc(C(=O)N(C3CC3)C3CCN(C(=O)OC(C)(C)C)CC3)cn2)cc1` ?
Ans. 6.53

Qu. Entry to check: `CN(Cc1cccnc1)C(=O)Cc1ccc(-c2ncc(C(=O)N(C3CC3)C3CCN(C(=O)OC(C)(C)C)CC3)cn2)cc1`
Ans. 6.50

Qu. Also need `COCCNC(=O)c1ccc(-c2ncc(C(=O)N(C3CC3)C3CCN(C(=O)OC(C)(C)C)CC3)cn2)cc1F` , thanks.
Ans. 6.84

Qu. Now the same for `CC(C)(C)OC(=O)N1CCC(N(C(=O)c2noc(-c3ccc(C#N)c(F)c3)n2)C2CC2)CC1`
Ans. 8.15

Qu. What do you have for `CC(C)(C)OC(=O)N1CCC(N(C(=O)c2cnc(-c3ccc(C(=O)Nc4ccc(CO)cc4)cc3)nc2)C2CC2)CC1` ?
Ans. 6.46

Qu. // repeat for `CN(C)C(=O)CNC(=O)c1ccc(-c2ncc(C(=O)N(C3CC3)C3CCN(C(=O)OC(C)(C)C)CC3)cn2)cc1` and report
Ans. 6.35
